What melting point was measured for each of the following?

[Q] Looking for the measured melting point of "O=C(O)c1ccccc1-c1nnc(-c2cccc(C(F)(F)F)c2)o1" , can you help?
[A] 141 to 159 °C

[Q] Further, for "CCCCCCCCCCCCCCCCCCOc1ccc(O)c(C(=O)N(N)C(=O)OCCCCCCCC)c1" ?
[A] 85 °C

[Q] And for "CCC(=O)c1cc2c(=O)n(NS(C)(=O)=O)c(=O)[nH]c2cc1C(F)(F)F" ?
[A] 234 to 236 °C

[Q] Now consider "CC1(C)COC(C=Cc2ccc([N+](=O)[O-])cc2)OC1" and answer again.
[A] 86.5 to 88.5 °C

[Q] And for "CCOC(=O)c1c(Cn2cnnc2)nc2cc(OC)c(OC)cc2c1-c1ccc(OC(C)C)c(OC)c1" ?
[A] 178 to 179 °C

* * *

Consider the following compounds; for each one, report its melting point.

[Q] Return reported melting point; argument: O=C(O)Cc1ccc(CNC(=O)C2Cc3ccccc3N2S(=O)(=O)c2ccc(-c3cccc(C(F)(F)F)c3)cc2)c(F)c1 (stereo not given)
[A] 99 to 105 °C

[Q] Entry "CC(C)(CNC=O)c1ccc2nc(-c3c[nH]cn3)[nH]c2c1" please
[A] 240 to 246 °C

[Q] Continue with "COc1cc2[nH]nc(CN3CCN(c4ccccc4OC)CC3)c2cc1OC"
[A] 192 °C

[Q] Please answer likewise for "O=C(c1cccs1)c1cnn2c(-c3cccc(NCc4ccccc4)c3)ccnc12"
[A] 90 to 92 °C

[Q] Moving on to "Fc1cncc(-n2ccc(Cl)n2)c1"
[A] 77 to 82 °C

[Q] Entry "CC(C)(C)OC(=O)N[C@@H](COCc1ccccc1)C(=O)N[C@H](CCC(=O)OCc1ccccc1)C(N)=O" please
[A] 65 to 66 °C

[Q] Next: "CC1(C)CCC(C)(C)c2cc(-c3cc(-c4ccc(C(=O)O)cc4)ccc3OCCCO)ccc21"
[A] 317 °C

[Q] Another compound to check: "CC(C)(O)Cn1c(CO)nc2c(N)nc3cc(OCc4cscn4)ccc3c21"
[A] 260 to 262 °C

[Q] Quick one: "CCCCCCCc1ccc(C(=O)Nc2ccc3oc(Nc4ccc(CC)cc4)nc3c2)cc1"
[A] 245 to 246 °C

[Q] Same lookup for "O=CN1CCn2nccc21" , please.
[A] 78 to 80 °C

[Q] Lookup Cn1c(=O)cc(CCc2cccc(Cl)c2)c2cc(C(N)(c3ccc(Cl)cc3)c3cccnc3)ccc21 (stereo not given)
[A] 90 °C

[Q] Next: "O=C(COc1ccc(CN2CCOCC2)cc1)N1CCN(c2ccc(N3C[C@H](CNC(=S)C4CC4)OC3=O)cc2F)CC1"
[A] 138 to 141 °C

[Q] Another: "O=C(NCC12CC3CC(CC(C3)C1)C2)c1ccccc1C(c1ccc(O)cc1)c1ccc(O)cc1"
[A] 149 to 151 °C

[Q] Follow-up entry: CCc1ccc2nc(C)[nH]c2c1N1CC(CI)OC1=O (stereo not given)
[A] 143 to 144 °C

[Q] Proceed to "COc1ccc(-c2cc(F)c(F)cc2-c2ccc(S(N)(=O)=O)cc2)cc1OC"
[A] 157 to 158 °C

[Q] Now the compound "Cn1cc(OC(=O)c2ccccc2)c(=O)c2cccc(F)c21"
[A] 179 to 181 °C

[Q] Item: "CCOP(=O)(COc1ccc(CO)cc1N)OCC"
[A] 181 to 184 °C

[Q] Please do the same for "OCCOCc1csc2ccccc12" as well.
[A] 149 to 150 °C

[Q] Another compound: "O=C(O)c1snnc1C1CC1"
[A] 158 to 159 °C

[Q] Same question, "CCOC(=O)C=CC(=O)c1ccc(-c2ccc(F)cc2)cc1" this time
[A] 115 to 117 °C

[Q] And for "Cc1cccc(-c2nc3cccnn3c2-c2ccnc(NC(=O)N3CCCCC3)c2)c1" ?
[A] 173 to 175 °C

[Q] For Cc1cccc2c1nc(COc1ccc(Cl)cc1)n2CCC(C)C(=O)Cl (stereo not given) then?
[A] 140 to 142 °C

[Q] For CCOC(=O)C1=C(N)C(NCC(O)COCc2cccc(CN3CCCCC3)c2)=NS1(=O)=O (stereo not given) then?
[A] 72 to 74 °C

[Q] Another: "COC(=O)N=c1[nH]c2ccccc2n1C1CCN(Cc2ccccc2)CC1"
[A] 170 °C

[Q] What do you get for "CCc1nc2c(n1C(CC)CC)C(=O)N(C)CN2c1ccc(Cl)cc1Cl" ?
[A] 132 to 133 °C
